- Target of assay: T1, human IL-13 R130Q variant (R110Q of the mature chain) (human, UniProt P35225 35-146, Biotinylated on amines (NHS-LC-biotin, 4:1) in ELISA, panning and competition assays. The letters are unchanged.)
- T1 construct: R130Q counts from Met 1 of the signal peptide, R110Q on the mature chain; Bought from Peprotech; also called IL-13 R110Q; b-R130Q
- Assay info: competition ELISA, biotinylated IL-13 R130Q binding to plate-bound IL-13Ra2, crude supernatant
Percent Inhibition IL-13 R130Q (333 ng/ml) to Ra2 by entry:
The response must be a number in % with no trailing unit.

Request: Requested field: Percent Inhibition IL-13 R130Q (333 ng/ml) to Ra2. Item: Lc2Hc2 (antibody, V domains shown) VH: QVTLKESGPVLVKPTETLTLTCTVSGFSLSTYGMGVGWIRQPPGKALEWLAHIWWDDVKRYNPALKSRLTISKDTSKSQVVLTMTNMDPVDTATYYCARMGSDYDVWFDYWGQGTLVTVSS VL: DIQMTQSPSSLSASVGDRVTITCRASKSISKYLAWYQQKPGKAPKLLIYSGSTLQSGVPSRFSGSGSGTDFTLTISSLQPEDFATYYCQQHNEYPYTFGQGTKLEIK
Result: 52

Request: Requested field: Percent Inhibition IL-13 R130Q (333 ng/ml) to Ra2. Item: Lc5Hc2 (antibody, V domains shown) VH: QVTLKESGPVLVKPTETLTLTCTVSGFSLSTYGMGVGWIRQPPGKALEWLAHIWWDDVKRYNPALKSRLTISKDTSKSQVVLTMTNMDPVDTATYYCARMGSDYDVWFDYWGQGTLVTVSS VL: DIQLTQSPSFLSASVGDRVTITCRASKSISKYLAWYQQKPGKAPKLLIYSGSTLQSGVPSRFSGSGSGTEFTLTISSLQPEDFATYYCQQHNEYPYTFGQGTKVEIK
Result: 57

Request: Requested field: Percent Inhibition IL-13 R130Q (333 ng/ml) to Ra2. Item: Lc6Hc2 (antibody, V domains shown, also called mAb 62; HFA62) VH: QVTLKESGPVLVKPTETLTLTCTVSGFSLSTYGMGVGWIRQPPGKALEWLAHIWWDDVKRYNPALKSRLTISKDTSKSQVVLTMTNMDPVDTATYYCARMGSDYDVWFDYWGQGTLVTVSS VL: EIVLTQSPATLSLSPGERATLSCRASKSISKYLAWYQQKPGQAPRLLIYSGSTLQSGIPARFSGSGSGTDFTLTISSLEPEDFAVYYCQQHNEYPYTFGQGTKLEIK
Result: 59
